Molecular target: récepteur vasculaire de l'angiotensine II (Oryctolagus cuniculus)
Construct: réponse contractile induite par l'angiotensine II dans des anneaux isolés d'aorte de lapin
Sequence (P34976 1-359): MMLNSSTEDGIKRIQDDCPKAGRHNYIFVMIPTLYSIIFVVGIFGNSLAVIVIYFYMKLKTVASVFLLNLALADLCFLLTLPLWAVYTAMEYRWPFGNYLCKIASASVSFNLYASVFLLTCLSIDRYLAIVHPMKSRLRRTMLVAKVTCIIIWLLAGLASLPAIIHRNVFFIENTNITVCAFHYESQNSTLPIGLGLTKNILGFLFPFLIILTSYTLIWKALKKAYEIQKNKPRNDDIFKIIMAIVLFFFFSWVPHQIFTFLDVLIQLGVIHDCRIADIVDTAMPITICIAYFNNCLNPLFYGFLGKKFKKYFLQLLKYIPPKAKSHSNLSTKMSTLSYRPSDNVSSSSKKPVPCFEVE
Assay: Antagonism of the angiotensin II-induced contractile response in isolated rabbit aortic rings
Conditions: contraction by angiotensine II 3.10⁻⁹ M, test product preincubated 15 minutes, 37°C
Description: L'activité des composés selon l'invention comme antagonistes du récepteur vasculaire de l'angiotensine II a été évaluée par leur efficacité à antagoniser la réponse contractile induite par l'angiotensine II dans des anneaux isolés d'aorte de lapin. Les anneaux sont suspendus dans un bain de Krebs-Henseleit maintenu à 37°C et aéré par un mélange O₂/CO₂ (95/5 , v/v) puis étirés à une tension de repos de 2 g. […]
readout: log10 of IC50 (log10 of the value in nM)
Heads up: the numbers are on a log10 scale; they represent IC50 in nM.

>>> recorded_result("CCCCc1ncc(CNc2ccccc2C(=O)OCC(=O)N(CC)CC)n1Cc1ccc(C(=O)OC)cc1")
1.95
>>> recorded_result("CCCCc1nc(Cl)c(CNc2ccc(C)cc2C(=O)O)n1Cc1ccc(C(=O)O)cc1")
0.83
>>> recorded_result("CCCCc1ncc(CNc2ccccc2C(=O)OCC(C)C)n1Cc1ccc(C(=O)O)cc1")
1.60

Enter log10 of IC50 (test system récepteur vasculaire de l'angiotensine II (Oryctolagus cuniculus)) for `CCCCc1ncc(CNc2ccccc2C(=O)OCC2CC2)n1Cc1ccc(C(=O)O)cc1`
1.70

Enter log10 of IC50 (test system récepteur vasculaire de l'angiotensine II (Oryctolagus cuniculus)) for CCCCc1ncc(CNc2ccccc2C(=O)OC(C)OC(=O)C2CCCCC2)n1Cc1ccc(C(=O)O)cc1 (centres unmarked)
1.60

Enter log10 of IC50 (test system récepteur vasculaire de l'angiotensine II (Oryctolagus cuniculus)) for `CCCCc1ncc(CNc2ccccc2C(=O)OCCc2ccccc2)n1Cc1ccc(C(=O)O)cc1`
1.91

Enter log10 of IC50 (test system récepteur vasculaire de l'angiotensine II (Oryctolagus cuniculus)) for `CCCCc1ncc(CNc2ccccc2C(=O)O)n1Cc1ccc(C(=O)NS(C)(=O)=O)cc1`
0.74

Enter log10 of IC50 (test system récepteur vasculaire de l'angiotensine II (Oryctolagus cuniculus)) for `CCCCc1nc(Cl)c(CNc2ccccc2C(=O)O)n1Cc1ccc(C(=O)O)cc1`
0.76

###

Reported pIC50 values are given for each entry in this list.
Molecular target: récepteur vasculaire de l'angiotensine II (Oryctolagus cuniculus)
Construct: réponse contractile induite par l'angiotensine II dans des anneaux isolés d'aorte de lapin
Assay: Antagonism of the angiotensin II-induced contractile response in isolated rabbit aortic rings
Details: contraction by angiotensine II 3.10⁻⁹ M, test product preincubated 15 minutes, 37°C
Description: L'activité des composés selon l'invention comme antagonistes du récepteur vasculaire de l'angiotensine II a été évaluée par leur efficacité à antagoniser la réponse contractile induite par l'angiotensine II dans des anneaux isolés d'aorte de lapin. Les anneaux sont suspendus dans un bain de Krebs-Henseleit maintenu à 37°C et aéré par un mélange O₂/CO₂ (95/5 , v/v) puis étirés à une tension de repos de 2 g. […]
// pIC50 here means minus log10 of the molar concentration (mol/L)

Some entries whose results are on file:
>>> recorded_result("CCCCc1ncc(CNc2ccccc2C(=O)OCCC(C)C)n1Cc1ccc(C(=O)O)cc1")
7.19
>>> recorded_result("CCCCc1ncc(CNc2ccccc2C(=O)O)n1Cc1ccc(C(=O)NS(=O)(=O)c2ccccc2Cl)cc1")
9.10
>>> recorded_result("CCCCc1ncc(CNc2ccccc2C(=O)O)n1Cc1ccc(C(=O)O)cc1")
8.44

// switching to the query compound
Give the reported pIC50 for this compound. `CCCCc1ncc(CNc2ccccc2C(=O)O)n1Cc1ccc(C(=O)NS(=O)(=O)c2cccc(Cl)c2)cc1`
8.00
